# TGT: Histamine H3 receptor (Homo sapiens)
# EXPERIMENT_SUMMARY: Intrinsic activity at human recombinant histamine H3 receptor expressed in Sf9 cells coexpressing Galphai2,Gbeta1gamma2 and RGS4 assessed as [35S]GTPgammaS binding at 10 uM after 90 mins by liquid scintillation counting relative to histamine
# Type: functional
Rule: Intrinsic activity of -0.2 or more gives 1 (yes); anything lower gives 0 (no).

Form field: Intrinsic activity at least -0.2? Entry: N#C/N=C(/NCCCNc1nccc(N)n1)NCCSc1ccccc1 0 (no)

* * *

# TGT: Histamine H1 receptor (Homo sapiens) (UniProt P35367)
# Sequence (P35367 whole entry): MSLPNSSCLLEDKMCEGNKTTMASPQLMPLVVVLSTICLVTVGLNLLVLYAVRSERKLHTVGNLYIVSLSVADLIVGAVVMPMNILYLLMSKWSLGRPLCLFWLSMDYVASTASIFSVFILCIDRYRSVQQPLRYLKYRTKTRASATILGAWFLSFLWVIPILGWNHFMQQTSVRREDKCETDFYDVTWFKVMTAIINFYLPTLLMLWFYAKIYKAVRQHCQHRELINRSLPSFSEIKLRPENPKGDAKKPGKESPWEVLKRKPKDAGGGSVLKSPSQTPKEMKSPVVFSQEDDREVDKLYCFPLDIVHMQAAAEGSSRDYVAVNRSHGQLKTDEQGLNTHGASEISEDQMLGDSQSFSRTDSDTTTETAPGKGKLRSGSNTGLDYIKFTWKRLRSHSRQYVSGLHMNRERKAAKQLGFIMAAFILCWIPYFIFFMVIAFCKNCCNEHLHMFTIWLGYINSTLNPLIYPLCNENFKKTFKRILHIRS
# EXPERIMENT_SUMMARY: Intrinsic activity at human recombinant histamine H1 receptor expressed in Sf9 cells coexpressing RGS4 preincubated for 2 mins before [gamma32P]GTP addition measured after 20 mins by steady-state GTPase activity assay relative to histamine
Consider the following molecules and their measured Intrinsic activity readings.
Lab note: jot down the number only; don't add units.

Solved entries (count: 2):
MOLECULE | TGT | Intrinsic activity
N/C(=N\C(=O)CC(c1ccccc1)c1ccccc1)NCCCc1ccccn1 | Histamine H1 receptor (Homo sapiens) (UniProt P35367) | 0.1
N#C/N=C(/NCCCNc1nccc(N)n1)NCCSc1ccccc1 | Histamine H1 receptor (Homo sapiens) (UniProt P35367) | 0.01

So what's the measured Intrinsic activity for this one? CC(CC(=O)/N=C(\N)NCCCc1ccc(CN(C)C)o1)c1ccccc1 (stereo unspecified) 0.04

Could you do the same for N/C(=N\C(=O)CC(c1ccccc1)c1ccccc1)NCCCc1cn[nH]c1 , please? 0.06

Next molecule up: N/C(=N\C(=O)CC(c1ccccc1)c1ccccc1)NCCCc1ncn[nH]1 0.06

* * *

# TGT: Histamine H2 receptor (Homo sapiens, UniProt P25021)
# Sequence (P25021 whole entry, the tested form may be a part): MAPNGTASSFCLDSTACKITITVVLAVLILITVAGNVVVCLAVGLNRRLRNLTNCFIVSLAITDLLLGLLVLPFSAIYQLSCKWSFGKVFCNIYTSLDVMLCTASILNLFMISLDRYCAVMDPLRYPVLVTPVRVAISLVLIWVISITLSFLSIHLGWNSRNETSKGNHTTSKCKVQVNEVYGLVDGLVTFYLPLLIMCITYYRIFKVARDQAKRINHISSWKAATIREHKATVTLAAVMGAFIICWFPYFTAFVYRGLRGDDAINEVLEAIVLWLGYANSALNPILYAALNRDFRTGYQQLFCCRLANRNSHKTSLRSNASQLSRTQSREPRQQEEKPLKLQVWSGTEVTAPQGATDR
# EXPERIMENT_SUMMARY: Agonist activity at human recombinant histamine H2 receptor-Gsalphas fusion protein expressed in Sf9 cells assessed as [35S]GTPgammaS binding after 90 mins by liquid scintillation counting
# Assay type: functional
ENDPOINT: EC50 (µM)
Give the number; µM is assumed, so skip it.

Using the record for Cc1nc(CCCCN/C(=N\C#N)NCCSc2ccccc2)c[nH]1 , report its EC50. 16.2

* * *

Readings of pKb for the listed molecules
# TGT: Histamine H3 receptor (Homo sapiens, UniProt Q9Y5N1)
# Sequence (Q9Y5N1 whole entry): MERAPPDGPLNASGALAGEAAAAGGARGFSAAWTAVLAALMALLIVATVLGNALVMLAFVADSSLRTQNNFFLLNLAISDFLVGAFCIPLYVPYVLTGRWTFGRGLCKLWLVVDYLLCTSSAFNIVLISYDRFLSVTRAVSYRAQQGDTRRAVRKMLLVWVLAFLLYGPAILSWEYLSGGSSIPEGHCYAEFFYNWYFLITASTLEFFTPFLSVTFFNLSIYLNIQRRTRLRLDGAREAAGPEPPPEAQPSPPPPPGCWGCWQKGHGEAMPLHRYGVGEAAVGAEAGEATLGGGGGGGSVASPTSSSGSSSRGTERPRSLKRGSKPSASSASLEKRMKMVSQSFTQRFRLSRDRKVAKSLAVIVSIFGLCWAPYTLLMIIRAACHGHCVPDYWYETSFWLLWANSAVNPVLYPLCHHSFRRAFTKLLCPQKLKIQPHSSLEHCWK
# EXPERIMENT_SUMMARY: Antagonist activity at human recombinant histamine H3 receptor expressed in Sf9 cells coexpressing Galphai2,Gbeta1gamma2 and RGS4 assessed as inhibition of histamine-induced […] hydrolysis preincubated for 2 mins before [gamma32P]GTP addition measured after 20 mins by steady-state GTPase activity assay
# Assay type: functional
// print number alone

Here is how some molecules turned out for pKb.
MOLECULE | TGT | RESULT
CC(CC(=O)/N=C(\N)NCCCc1ccc(CN(C)C)o1)c1ccccc1 (configuration not stated) | Histamine H3 receptor (Homo sapiens, UniProt Q9Y5N1) | 5.92
N/C(=N\C(=O)CC(c1ccccc1)c1ccccc1)NCCCc1ncc[nH]1 | Histamine H3 receptor (Homo sapiens, UniProt Q9Y5N1) | 5.47
CC(CC(=O)/N=C(\N)NCCCc1ncc[nH]1)c1ccccc1 (configuration not stated) | Histamine H3 receptor (Homo sapiens, UniProt Q9Y5N1) | 5.41
CC(CC(=O)/N=C(\N)NCCCc1ncc[nH]1)c1cccs1 (configuration not stated) | Histamine H3 receptor (Homo sapiens, UniProt Q9Y5N1) | 5.35
N/C(=N\C(=O)CC(c1ccccc1)c1ccccc1)NCCCc1ccccn1 | Histamine H3 receptor (Homo sapiens, UniProt Q9Y5N1) | 5.35

pKb lookup needed for CC(CC(=O)/N=C(\N)NCCCc1ccc(CN(C)C)o1)c1cccs1 (configuration not stated) , thanks. 5.77

Input N/C(=N\C(=O)CC(c1ccccc1)c1ccccc1)NCCCc1ccncc1 5.06

Again, but for N/C(=N\C(=O)CC(c1ccccc1)c1ccccc1)NCCCc1ccccc1 5.1

Item: N/C(=N\C(=O)CC(c1ccccc1)c1nccs1)NCCCc1ncc[nH]1 (configuration not stated) 5.28

Further, for CN(C)Cc1ccc(CCCN/C(N)=N/C(=O)CC(c2ccccc2)c2nccs2)o1 (configuration not stated) ? 5.51

Cool, now CN(C)Cc1ccc(CCCN/C(N)=N/C(=O)CC(c2ccccc2)c2ccccc2)o1 5.89

src = ChEMBL document CHEMBL3217456
